Test system: HEK-293T
assay comment: Multiplex assay against HEK293T
Assay type: toxicity, cell-based
stated conditions: human, 24 h, 1 µM, compound concentration 1 uM, replicate 2
Please note: MET applies when Population Apoptotic (%) is 40% or greater, and NOT MET applies otherwise.

compound | classification
Cc1nc2ccc(Oc3ccc(F)cc3)cc2c(=O)n1C[C@H]1CCCN(C(C)C)C1.Cl | NOT MET
CCCn1c(=O)c2[nH]c(C3CCCC3)nc2n(CCC)c1=O | NOT MET
C[C@@H]1C[C@H]2[C@@H]3CCC4=CC(=O)C=C[C@]4(C)[C@@]3(F)[C@@H](O)C[C@]2(C)[C@@]1(O)C(=O)CO | MET
COc1ccccc1N1CCN(CCCCNC(=O)c2ccc3ccccc3c2)CC1.Cl | NOT MET
CC[C@H]1OC(=O)[C@H](C)[C@@H](O[C@H]2C[C@@](C)(OC)[C@@H](O)[C@H](C)O2)[C@H](C)[C@@H](O[C@@H]2O[C@H](C)C[C@H](N(C)C)[C@H]2O)[C@@]2(C)CC(C)=C(O2)[C@H](C)[C@@H](O)[C@]1(C)O | NOT MET
CCOc1c2c(c(OCC)c3ncccc13)CN(c1ccc(CS(=O)(=O)NC(=O)Cc3ccccc3OC)cc1C)C2=O | NOT MET

---

Test system: U2OS
assay comment: Multiplex assay against U2OS
Format: toxicity, cell-based
stated conditions: human, 12 h, 10 µM, compound concentration 10 uM, replicate 2
# note: boundary value 10% maps to F; Population Tubulin-Different-Phenotype (%) below it maps to T

compound | classification
O=C(NCCO)c1cccc(-c2cc(Nc3ccc(OC(F)(F)F)cc3)ncn2)c1 | T
Cl.Clc1ccc2nsnc2c1NC1=NCCN1 [TIZANIDINE HYDROCHLORIDE] | F
C[C@@H]1C[C@H]2[C@@H]3CCC4=CC(=O)C=C[C@]4(C)[C@@]3(F)[C@@H](O)C[C@]2(C)[C@@]1(O)C(=O)CO | T
CC(=O)NCCc1c(Cc2ccccc2)[nH]c2ccccc12 | T
O=C1COc2nccc(-c3ccccc3F)c2CN1Cc1cc(C(F)(F)F)cc(C(F)(F)F)c1 | F
O=C(O)c1cc2ccccc2c(Cc2c(O)c(C(=O)O)cc3ccccc23)c1O | T
N#Cc1c(N)nc(SCc2csc(-c3ccc(Cl)cc3)n2)c(C#N)c1-c1ccc(OCCO)cc1 | F

---

Test system: Fibroblast
assay comment: Multiplex assay against human fibroblast
Type: toxicity, cell-based
stated conditions: 24 h, 1 µM, compound concentration 1 uM, replicate 2
parameter measured: Population Hoechst High Intensity Objects (%)

compound | measured result
CN(C)CCCc1cc(C(=O)Nc2ccc(-c3ccncc3)cc2)ccc1O.Cl.Cl | 4
CCCn1c(=O)c2[nH]c(C3CCCC3)nc2n(CCC)c1=O | 3
C[C@@H]1C[C@H]2[C@@H]3CCC4=CC(=O)C=C[C@]4(C)[C@@]3(F)[C@@H](O)C[C@]2(C)[C@@]1(O)C(=O)CO [DEXAMETHASONE] | 6
CC(C)(C)c1ccc(S(=O)(=O)Nc2ccc(Cl)cc2C(=O)c2cc[n+]([O-])cc2)cc1 [VERCIRNON] | 7

---

Test system: Fibroblast
assay comment: Multiplex assay against human fibroblast
Assay type: toxicity, cell-based
stated conditions: 12 h, 1 µM, compound concentration 1 uM, replicate 2

compound | Population Mitotic Cells (%)
Oc1c(CN2CCN(c3ccccn3)CC2)cc(Cl)c2cccnc12 | 42%
c1cc(OCCCN2CCCCC2)ccc1CN1CCCCC1 | 73%
COc1cc(C(=O)N(CCCc2ccccc2)Cc2ccc(CC(=O)O)cc2)cc(OC)c1C | 57%
C[C@@H]1C[C@H]2[C@@H]3CCC4=CC(=O)C=C[C@]4(C)[C@@]3(F)[C@@H](O)C[C@]2(C)[C@@]1(O)C(=O)CO | 61%
CCCC(CCC)C(=O)O | 42%

Reference for the values: ChEMBL document CHEMBL5058577
